Experimental system: P450 1B1 (Homo sapiens, UniProt Q16678)
Sequence (Q16678 1-543): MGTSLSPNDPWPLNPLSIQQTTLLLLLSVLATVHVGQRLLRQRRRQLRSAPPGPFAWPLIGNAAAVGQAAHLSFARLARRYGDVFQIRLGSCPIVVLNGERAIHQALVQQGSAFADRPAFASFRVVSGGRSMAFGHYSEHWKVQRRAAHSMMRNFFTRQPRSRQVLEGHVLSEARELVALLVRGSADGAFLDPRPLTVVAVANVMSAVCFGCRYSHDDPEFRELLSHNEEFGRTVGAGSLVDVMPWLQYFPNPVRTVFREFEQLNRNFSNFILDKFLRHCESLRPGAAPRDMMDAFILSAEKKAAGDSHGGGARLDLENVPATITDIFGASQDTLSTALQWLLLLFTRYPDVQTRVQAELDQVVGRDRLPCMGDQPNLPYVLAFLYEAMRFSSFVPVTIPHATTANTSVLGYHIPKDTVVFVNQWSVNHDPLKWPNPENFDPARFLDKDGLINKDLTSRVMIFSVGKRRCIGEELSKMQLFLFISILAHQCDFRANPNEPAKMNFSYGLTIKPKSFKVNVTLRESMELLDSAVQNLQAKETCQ
Run description: Inhibition of P450 1B1-dependent 7-ethoxyresorufin O-deethylation
Reported conditions: inhibition of EROD activity IC50, 15 s of incubation time (direct and direct/restore inhibitors); means and SE
// returns F unless IC50 is strictly below 0.09 µM, in which case T

Here are 5 compounds together with their reported answers.
| Compound | Assigned label |
| --- | --- |
| c1ccc2c(c1)ccc1nc3ccc4ccccc4c3cc12 [DB[a,j]Ac, dibenz[a,j]acridine] | T |
| C#Cc1ccc2c(ccc3ccccc32)c1 | F |
| Cc1c2ccccc2c(C)c2c1ccc1ccccc12 [DMBA, 7,12-dimethylbenz[a]anthracene] | F |
| c1ccc2c(c1)c1cccc3ccc4cccc2c4c31 [B[e]P, benzo[e]pyrene] | T |
| Cc1cc2ccccc2c2ccc3ccccc3c12 | T |

Quick check: IC50 of C#Cc1cc2cccc3ccc4cccc1c4c32 under 0.09 µM? F

Quick check: IC50 of c1ccc2c3c(ccc2c1)-c1cccc2cccc-3c12 [B[j]FA, benzo[j]fluoranthene] under 0.09 µM? T

Quick check: IC50 of C#Cc1ccc2ccc3cccc4ccc1c2c34 under 0.09 µM? T

Quick check: IC50 of C#Cc1ccc2ccc3ccccc3c2c1 under 0.09 µM? F

* * *

Experimental system: P450 1A2 (Homo sapiens, UniProt P05177)
Sequence (P05177 1-516): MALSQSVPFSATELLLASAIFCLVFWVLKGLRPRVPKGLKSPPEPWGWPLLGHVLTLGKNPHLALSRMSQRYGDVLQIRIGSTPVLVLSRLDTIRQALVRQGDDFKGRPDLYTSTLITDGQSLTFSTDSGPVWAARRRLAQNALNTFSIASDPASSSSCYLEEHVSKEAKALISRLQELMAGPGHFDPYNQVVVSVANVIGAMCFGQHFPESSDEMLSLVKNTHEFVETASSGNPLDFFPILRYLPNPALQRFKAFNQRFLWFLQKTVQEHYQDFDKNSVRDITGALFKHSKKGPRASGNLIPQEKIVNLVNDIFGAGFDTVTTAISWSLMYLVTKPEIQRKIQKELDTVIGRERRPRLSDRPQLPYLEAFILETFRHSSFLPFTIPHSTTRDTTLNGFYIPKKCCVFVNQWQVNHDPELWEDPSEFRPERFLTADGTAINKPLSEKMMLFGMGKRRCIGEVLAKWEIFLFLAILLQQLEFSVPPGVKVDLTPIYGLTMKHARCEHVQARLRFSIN
pKd: −log10 of the molar value.
pKd values, listed per item

| Compound | pKd |
| --- | --- |
| c1ccc2c(c1)-c1cccc3cccc-2c13 [FA, fluoranthene] | ~5.00 |
| c1ccc2c(c1)cc1ccc3cccc4ccc2c1c34 [B[a]P, benzo[a]pyrene] | ~5.00 |

Noted for C=Cc1ccc2ccc3cccc4ccc1c2c34 [1VP, 1-vinylpyrene] : its pKd reads ~5.00

Noted for CC#Cc1ccc2ccc3cccc4ccc1c2c34 [1PP, 1-(1-propynyl)pyrene] : its pKd reads ~5.00

Noted for c1ccc2c(c1)-c1cccc3c1c-2cc1ccccc13 [B[b]FA, benzo[b]fluoranthene] : its pKd reads ~5.00

* * *

Experimental system: UniProt:Q16678
Run description: Spectral binding titrations with purified P450 1B1
Reported conditions: 1 μM P450 1B1; pH 7.4
Property: wavelengths (peak/trough)

| Molecule | Experimental system | Result value |
| --- | --- | --- |
| C#Cc1cc2cccc3ccc4cccc1c4c32 [4EP, 4-ethynylpyrene] | UniProt:Q16678 | 416/383 |

UniProt:Q16678 wavelengths (peak/trough) of C#Cc1ccc2c(ccc3ccccc32)c1 [2EPh, 2-ethynylphenanthrene] is 414/383

UniProt:Q16678 wavelengths (peak/trough) of CC#Cc1ccc2ccc3cccc4ccc1c2c34 [1PP, 1-(1-propynyl)pyrene] is 416/383

UniProt:Q16678 wavelengths (peak/trough) of C#Cc1ccc2ccc3cccc4ccc1c2c34 [1EP, 1-ethynylpyrene] is 416/383

UniProt:Q16678 wavelengths (peak/trough) of CC#Cc1ccc(-c2ccccc2)cc1 [4Pbi, 4-(1-propynyl)biphenyl] is 415/386

UniProt:Q16678 wavelengths (peak/trough) of C#Cc1ccc2ccc3ccccc3c2c1 [3EPh, 3-ethynylphenanthrene] is 414/383

UniProt:Q16678 wavelengths (peak/trough) of C#Cc1ccc2ccccc2c1 [2EN, 2-ethynylnaphthalene] is 415/383

UniProt:Q16678 wavelengths (peak/trough) of C#Cc1cc2ccccc2c2ccccc12 [9EPh, 9-ethynylphenanthrene] is 415/383

UniProt:Q16678 wavelengths (peak/trough) of CC#Cc1ccc2c(ccc3ccccc32)c1 [2PPh, 2-(1-propynyl)phenanthrene] is 415/383

UniProt:Q16678 wavelengths (peak/trough) of C=Cc1ccc2ccc3cccc4ccc1c2c34 [1VP, 1-vinylpyrene] is 416/383

* * *

Experimental system: P450 1B1 (Homo sapiens)
Run description: Inhibition of P450 1B1-dependent 7-ethoxyresorufin O-deethylation
Reported conditions: inhibition of EROD activity IC50, 6 min of incubation time (mechanism-based inhibitor); means and SE
Property: pIC50
Remember the convention: pIC50 equals -log10 of concentration in molar.

Noted for CC#Cc1ccc(-c2ccccc2)cc1 : its pIC50 reads 4.77

* * *

Experimental system: P450 1B1 (Homo sapiens)
Run description: Quenching of P450 1B1
Format: binding
Reported conditions: extrapolated % quenching; 1.0 μM P450 1B1
Property: PAH binding to P450 1B1 Bmax (%)
Give your result in % as a bare value.

| Molecule | PAH binding to P450 1B1 Bmax (%) |
| --- | --- |
| Cc1ccc2cc3c(ccc4ccccc43)c3c2c1CC3 [3MC, 3-methylcholanthrene] | 105 |
| Cc1c2ccccc2c(C)c2c1ccc1ccccc12 [DMBA, 7,12-dimethylbenz[a]anthracene] | 62 |
| C#Cc1cc2cccc3ccc4cccc1c4c32 [4EP, 4-ethynylpyrene] | 67 |

Noted for Cc1cc2ccccc2c2ccc3ccccc3c12 [5MeCh, 5-methylchrysene] : its PAH binding to P450 1B1 Bmax reads 83

Noted for C#Cc1cc2ccccc2c2ccccc12 [9EPh, 9-ethynylphenanthrene] : its PAH binding to P450 1B1 Bmax reads 52

Noted for C#Cc1ccc2c(ccc3ccccc32)c1 [2EPh, 2-ethynylphenanthrene] : its PAH binding to P450 1B1 Bmax reads 62

Noted for C#Cc1ccc2ccc3ccccc3c2c1 [3EPh, 3-ethynylphenanthrene] : its PAH binding to P450 1B1 Bmax reads 108

Noted for C=Cc1ccc2ccc3cccc4ccc1c2c34 [1VP, 1-vinylpyrene] : its PAH binding to P450 1B1 Bmax reads 65

Noted for C#Cc1cc2ccc3cccc4ccc(c1)c2c34 [2EP, 2-ethynylpyrene] : its PAH binding to P450 1B1 Bmax reads 69

Noted for C#Cc1ccc2ccc3cccc4ccc1c2c34 [1EP, 1-ethynylpyrene] : its PAH binding to P450 1B1 Bmax reads 74

* * *

Experimental system: P450 1B1 (Homo sapiens)
Run description: Spectral binding titrations with purified P450 1B1
Reported conditions: 1 μM P450 1B1; means ± S.E.
Property: ΔAmax (ΔA~416-A~383)
The answer should be written as a number, with no unit following it.

Answered examples (3):
| Smiles repr | ΔAmax (ΔA~416-A~383) |
| --- | --- |
| C#Cc1cc2ccccc2c2ccccc12 | 0.071 |
| CC#Cc1ccc2c(ccc3ccccc32)c1 | 0.067 |
| C#Cc1ccc2ccccc2c1 | 0.049 |

Noted for C#Cc1ccc2c(ccc3ccccc32)c1 : its ΔAmax (ΔA~416-A~383) reads 0.080

Noted for C#Cc1cc2ccc3cccc4ccc(c1)c2c34 : its ΔAmax (ΔA~416-A~383) reads 0.071

Noted for CC#Cc1ccc2ccc3ccccc3c2c1 : its ΔAmax (ΔA~416-A~383) reads 0.060

Noted for C=Cc1ccc2ccc3cccc4ccc1c2c34 : its ΔAmax (ΔA~416-A~383) reads 0.092

Noted for C#Cc1cc2cccc3ccc4cccc1c4c32 : its ΔAmax (ΔA~416-A~383) reads 0.052

Noted for C#Cc1ccc(-c2ccccc2)cc1 : its ΔAmax (ΔA~416-A~383) reads 0.023
